Each entry below carries its reported IC50, HEK Blue SEAP reporter assay.
Target: T1, hu-IL-36γ (human, UniProt Q9NZH8 18-169)
T1 sequence: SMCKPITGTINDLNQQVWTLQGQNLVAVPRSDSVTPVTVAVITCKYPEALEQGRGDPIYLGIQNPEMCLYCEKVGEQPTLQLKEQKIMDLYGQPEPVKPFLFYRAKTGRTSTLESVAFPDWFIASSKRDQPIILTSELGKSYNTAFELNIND
Test: cell-based or functional assay
QUANTITY_NAME: IC50, HEK Blue SEAP reporter assay

INSERT INTO measurements (binder, assay_result) VALUES
  ('mAb5.0 IgG (antibody, V domains shown) VH: EVQLLESGGGLVQPGGSLRLSCAASGFTFSTYAMSWVRQAPGKGLEWVSGISGGSGYTYYADSVKGRFTISRDNSKNTLYLQMNSLRAEDTAVYYCARVVTYRDPPASFDYWGQGTLVTVSS VL: QSVLTQPPSVSGAPGQRVTISCTGSSSNIGAHYDVHWYQQLPGTAPKLLIYGNDNRPSGVPDRFSGSKSGTSASLAITGLQAEDEADYYCQSYDYSLKAYVFGGGTKLTVL', '142 nM'),
  ('mAb2.0 IgG (antibody, V domains shown) VH: QLQLQESGPGLVKPSETLSLTCTVSGGSISTSSYYWGWIRQPPGKGLEWIGSIYYTGNTYYNPSLKSRVTISVDTSKNQFSLKLSSVTAADTAVYYCARVRYGVGVPRYFDPWGQGTLVTVSS VL: QSVLTQPPSVSGAPGQRVTISCTGSSSNIGAHYDVHWYQQLPGTAPKLLIYGNDNRPSGVPDRFSGSKSGTSASLAITGLQAEDEADYYCQSYDYSLSGYVFGGGTKLTVLG', '7.5 nM');
